Tested on: Enterobacter cloacae
protocol details: Antimicrobial activity against Enterobacter cloacae clinical isolate after 18 to 22 hrs by broth microdilution method
Assay type: functional
outcome measure: MIC90

// worked examples, MIC90 included
- molecule: "CO/N=C(\\C(=O)N[C@@H]1C(=O)N2C(C(=O)O)=C(CSc3nc(=O)c(O)nn3C)CS[C@H]12)c1csc(N)n1"
  MIC90: "> 32 µg/mL"
- molecule: "CCN1CCN(C(=O)N[C@@H](C(=O)N[C@@H]2C(=O)N3[C@@H]2SC(C)(C)[C@@H]3C(=O)O)c2ccccc2)C(=O)C1=O"
  MIC90: "> 128 µg/mL"
- molecule: "C[C@H]1COc2c(N3CCN(C)CC3)c(F)cc3c(=O)c(C(=O)O)cn1c23.C[C@H]1COc2c(N3CCN(C)CC3)c(F)cc3c(=O)c(C(=O)O)cn1c23.O"
  MIC90: "> 16 µg/mL"

Okay, now this molecule:
Bench note: what MIC90 did C[C@@H](O)[C@H]1C(=O)N2C(C(=O)O)=C(SCCNC=N)C[C@H]12 [IMIPENEM ANHYDROUS] show?
1 µg/mL

----------
Tested on: Haemophilus parainfluenzae
protocol details: Antimicrobial activity against Haemophilus parainfluenzae clinical isolate after 18 to 22 hrs by broth microdilution method
Format: functional
outcome measure: MIC90 (µg/mL)
The reply should contain only the number, in µg/mL.

Bench note: what MIC90 did C[C@@H](O)[C@H]1C(=O)N2C(C(=O)O)=C(SCCNC=N)C[C@H]12 [IMIPENEM ANHYDROUS] show?
0.5

Please answer likewise for CCN1CCN(C(=O)N[C@@H](C(=O)N[C@@H]2C(=O)N3[C@@H]2SC(C)(C)[C@@H]3C(=O)O)c2ccccc2)C(=O)C1=O
0.5

Please answer likewise for C[C@H]1COc2c(N3CCN(C)CC3)c(F)cc3c(=O)c(C(=O)O)cn1c23.C[C@H]1COc2c(N3CCN(C)CC3)c(F)cc3c(=O)c(C(=O)O)cn1c23.O
0.06

----------
Below, each of the compounds is paired with its reported MIC50 value.
Tested on: Streptococcus pyogenes
protocol details: Antimicrobial activity against Streptococcus pyogenes clinical isolate after 18 to 22 hrs by broth microdilution method
Assay type: functional
The reply should contain only the number, in µg/mL.

- chemical smiles: "C[C@H]1COc2c(N3CCN(C)CC3)c(F)cc3c(=O)c(C(=O)O)cn1c23.C[C@H]1COc2c(N3CCN(C)CC3)c(F)cc3c(=O)c(C(=O)O)cn1c23.O"
  unit descriptor: "µg/mL"
  MIC50: 0.5

Bench note: what MIC50 did CN[C@H](CC(C)C)C(=O)N[C@H]1C(=O)N[C@@H](CC(N)=O)C(=O)N[C@H]2C(=O)N[C@H]3C(=O)N[C@H](C(=O)N[C@H](C(=O)O)c4cc(O)cc(O)c4-c4cc3ccc4O)[C@H](O)c3ccc(c(Cl)c3)Oc3cc2cc(c3O[C@@H]2O[C@H](CO)[C@@H](O)[C@H](O)[C@H]2O[C@H]2C[C@](C)(N)[C@H](O)[C@H](C)O2)Oc2ccc(cc2Cl)[C@H]1O show?
0.25

Please answer likewise for CC(=O)NC[C@H]1CN(c2ccc(N3CCOCC3)c(F)c2)C(=O)O1
1

Please answer likewise for CCN1CCN(C(=O)N[C@@H](C(=O)N[C@@H]2C(=O)N3[C@@H]2SC(C)(C)[C@@H]3C(=O)O)c2ccccc2)C(=O)C1=O
0.03
